# Tested on: LAD2 cells
# experiment: LAD2 cell viability
# Format: cell-based, Human
# condition_info: 10 μmol/L
observable: cytotoxicity on LAD2 cells

INSERT INTO results (mol_smiles, observable, measured) VALUES
  ('O=C(Nc1ccccc1)Nc1ccc(C(F)(F)F)cc1', 'cytotoxicity on LAD2 cells', 'attenuated cytotoxicity'),
  ('O=C(Nc1ccccc1)Nc1cccc(C(F)(F)F)c1', 'cytotoxicity on LAD2 cells', 'attenuated cytotoxicity');

* * *

# System: LAD2 cells
# experiment: β-hexosaminidase release induced by C48/80 in LAD2 cells
# Type: cell-based, Human
# condition_info: Homo sapiens, LAD2, read-out: Experimental pIC50 (converted)
Field: label. Allowed values: True (IC50 < 1000 nM) or False (IC50 >= 1000 nM).

# count of solved cases: 6
INSERT INTO assay_data (mol_smiles, group_label) VALUES
  ('O=C(Nc1ccc([N+](=O)[O-])cc1)Nc1ccc(C(F)(F)F)cc1', 'True'),
  ('O=C(Nc1ccccc1)Nc1cc(Br)cc(C(F)(F)F)c1', 'False'),
  ('O=C(Nc1ccc([N+](=O)[O-])cc1)Nc1cccc(C(F)(F)F)c1', 'True'),
  ('O=C(Nc1ccc(C(F)(F)F)cc1)Nc1cccc([N+](=O)[O-])c1', 'True'),
  ('O=C(Nc1cccc([N+](=O)[O-])c1)Nc1cccc(C(F)(F)F)c1', 'True'),
  ('O=C(Nc1ccccc1)Nc1ccc(C(F)(F)F)cc1', 'False');

**Q:** Hello, I'm reviewing records and need to know if IC50 of "O=C(Nc1ccccc1)Nc1cccc(Br)c1" is below 1000 nM. Could you check?
**A:** False

**Q:** Hello, I'm reviewing records and need to know if IC50 of "O=C(Nc1ccc(C(F)(F)F)cc1)Nc1cccc(Br)c1" is below 1000 nM. Could you check?
**A:** False
